Hi there, I'd appreciate the recorded IC50 for every entry that follows.
Field format: number, assumed nM, no unit text.

Param readout = IC50; param system = PI3Kγ (Homo sapiens, UniProt P48736); param query = `CN(C)CCn1ccc2c(N3CCOCC3)nc(-c3ccc(NC(=O)Nc4ccncc4)cc3)nc21` ; response: value 36

Param readout = IC50; param system = PI3Kγ (Homo sapiens, UniProt P48736); param query = `CCn1ccc2c(N3CCOCC3)nc(-c3ccc(NC(=O)Nc4ccc(C(=O)O)cc4)cc3)nc21` ; response: value 120

Param readout = IC50; param system = PI3Kγ (Homo sapiens, UniProt P48736); param query = `CCn1ccc2c(N3CCOCC3)nc(-c3ccc(NC(=O)Nc4ccc(C(=O)NCCOC)cc4)cc3)nc21` ; response: value 118

Param readout = IC50; param system = PI3Kγ (Homo sapiens, UniProt P48736); param query = `CCn1ccc2c(N3CCOCC3)nc(-c3ccc(NC(=O)Nc4ccc(C(=O)N(C)CCN(C)C)cc4)cc3)nc21` ; response: value 20

* * *

Hi there, I'd appreciate the recorded log10(IC50) for every entry that follows.
Hey, these are logged values: log10 of IC50, µM being the unit before logging.

Param readout = log10(IC50); param system = UniProtKB P48736; param query = `CC(C)n1ccc2c(N3CCOCC3)nc(-c3ccc(NC(=O)Nc4ccc(C(=O)N5CCNCC5)cc4)cc3)nc21` ; response: value -1.89

Param readout = log10(IC50); param system = UniProtKB P48736; param query = `CCn1ccc2c(N3CCOCC3)nc(-c3ccc(NC(=O)Nc4ccc(C(=O)N5CCN(C)CC5)cc4)cc3)nc21` ; response: value -1.72

Param readout = log10(IC50); param system = UniProtKB P48736; param query = `CNCCn1ccc2c(N3CCOCC3)nc(-c3ccc(NC(=O)Nc4ccncc4)cc3)nc21` ; response: value -1.00

Param readout = log10(IC50); param system = UniProtKB P48736; param query = `CC(C)n1ccc2c(N3CCOCC3)nc(-c3ccc(NC(=O)Nc4ccc(C(=O)N5CCN(C)CC5)cc4)cc3)nc21` ; response: value -1.42

Param readout = log10(IC50); param system = UniProtKB P48736; param query = `CN(C)CCn1ccc2c(N3CCOCC3)nc(-c3cccc(O)c3)nc21` ; response: value 0.23

Param readout = log10(IC50); param system = UniProtKB P48736; param query = `Nc1nc2cc(-c3nc(N4CCOCC4)c4ccn(CC(F)(F)F)c4n3)ccc2[nH]1` ; response: value -0.30

Param readout = log10(IC50); param system = UniProtKB P48736; param query = `NC(=O)Nc1cccc(Cn2ccc3c(N4CCOCC4)nc(-c4ccc(NC(=O)Nc5ccncc5)cc4)nc32)c1` ; response: value -0.71

Param readout = log10(IC50); param system = UniProtKB P48736; param query = `CCn1ccc2c(N3CCOCC3)nc(-c3ccc(NC(=O)Nc4ccc(C(=O)OC)cc4)cc3)nc21` ; response: value -0.25

Param readout = log10(IC50); param system = UniProtKB P48736; param query = `CN(C)CCn1ccc2c(N3CCOCC3)nc(-c3ccc(NC(=O)Nc4cccnc4)cc3)nc21` ; response: value -0.99

Param readout = log10(IC50); param system = UniProtKB P48736; param query = `CC(C)n1ccc2c(N3CCOCC3)nc(-c3ccc(NC(=O)Nc4ccncc4)cc3)nc21` ; response: value -0.71

Param readout = log10(IC50); param system = UniProtKB P48736; param query = `CN(C)CCNCCn1ccc2c(N3CCOCC3)nc(-c3ccc(NC(=O)Nc4ccncc4)cc3)nc21` ; response: value -0.37

Param readout = log10(IC50); param system = UniProtKB P48736; param query = `CCOC(=O)Nc1nc2cc(-c3nc(N4CCOCC4)c4ccn(CC(F)(F)F)c4n3)ccc2[nH]1` ; response: value -0.68

Param readout = log10(IC50); param system = UniProtKB P48736; param query = O=C(Nc1ccncc1)Nc1ccc(-c2nc(N3CCOCC3)c3ccn(CC4NC(=O)NC4=O)c3n2)cc1 (stereo not drawn) ; response: value -1.00

Param readout = log10(IC50); param system = UniProtKB P48736; param query = `Cn1ccc2c(N3CCOCC3)nc(-c3ccc(NC(=O)Nc4cccnc4)cc3)nc21` ; response: value -0.84

* * *

Parameter 'readout' = IC50; parameter 'system' = PI3Kα (Homo sapiens, UniProt P42336).
Sequence (P42336 whole entry, species assumed): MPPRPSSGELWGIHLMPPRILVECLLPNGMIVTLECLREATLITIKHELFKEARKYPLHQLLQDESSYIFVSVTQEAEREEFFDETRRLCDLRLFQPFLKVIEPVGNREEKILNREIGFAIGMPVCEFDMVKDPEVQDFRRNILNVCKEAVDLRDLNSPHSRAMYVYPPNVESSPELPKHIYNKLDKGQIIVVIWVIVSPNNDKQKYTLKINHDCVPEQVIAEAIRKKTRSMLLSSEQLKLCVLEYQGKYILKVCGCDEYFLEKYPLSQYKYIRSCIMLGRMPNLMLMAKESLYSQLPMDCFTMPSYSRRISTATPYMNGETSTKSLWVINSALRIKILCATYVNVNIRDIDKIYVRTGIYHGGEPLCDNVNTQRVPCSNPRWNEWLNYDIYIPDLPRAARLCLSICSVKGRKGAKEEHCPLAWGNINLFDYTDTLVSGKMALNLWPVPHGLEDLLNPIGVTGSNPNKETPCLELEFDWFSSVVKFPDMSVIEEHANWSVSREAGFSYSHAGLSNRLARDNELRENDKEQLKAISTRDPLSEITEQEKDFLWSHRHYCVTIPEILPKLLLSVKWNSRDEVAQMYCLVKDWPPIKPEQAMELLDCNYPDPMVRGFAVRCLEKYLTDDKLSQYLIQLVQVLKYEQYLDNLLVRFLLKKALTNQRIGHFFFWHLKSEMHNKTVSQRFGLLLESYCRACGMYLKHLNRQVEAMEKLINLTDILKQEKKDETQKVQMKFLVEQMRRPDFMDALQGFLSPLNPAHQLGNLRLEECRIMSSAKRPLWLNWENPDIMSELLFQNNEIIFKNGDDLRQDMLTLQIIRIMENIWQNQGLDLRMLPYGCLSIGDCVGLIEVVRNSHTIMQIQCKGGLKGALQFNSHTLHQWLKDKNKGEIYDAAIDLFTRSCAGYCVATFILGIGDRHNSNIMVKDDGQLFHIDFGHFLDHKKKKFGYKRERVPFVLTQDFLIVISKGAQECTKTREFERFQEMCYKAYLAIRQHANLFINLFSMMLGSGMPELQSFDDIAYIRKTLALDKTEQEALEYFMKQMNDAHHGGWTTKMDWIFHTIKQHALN
Sequence (P27986 whole entry partner, species assumed): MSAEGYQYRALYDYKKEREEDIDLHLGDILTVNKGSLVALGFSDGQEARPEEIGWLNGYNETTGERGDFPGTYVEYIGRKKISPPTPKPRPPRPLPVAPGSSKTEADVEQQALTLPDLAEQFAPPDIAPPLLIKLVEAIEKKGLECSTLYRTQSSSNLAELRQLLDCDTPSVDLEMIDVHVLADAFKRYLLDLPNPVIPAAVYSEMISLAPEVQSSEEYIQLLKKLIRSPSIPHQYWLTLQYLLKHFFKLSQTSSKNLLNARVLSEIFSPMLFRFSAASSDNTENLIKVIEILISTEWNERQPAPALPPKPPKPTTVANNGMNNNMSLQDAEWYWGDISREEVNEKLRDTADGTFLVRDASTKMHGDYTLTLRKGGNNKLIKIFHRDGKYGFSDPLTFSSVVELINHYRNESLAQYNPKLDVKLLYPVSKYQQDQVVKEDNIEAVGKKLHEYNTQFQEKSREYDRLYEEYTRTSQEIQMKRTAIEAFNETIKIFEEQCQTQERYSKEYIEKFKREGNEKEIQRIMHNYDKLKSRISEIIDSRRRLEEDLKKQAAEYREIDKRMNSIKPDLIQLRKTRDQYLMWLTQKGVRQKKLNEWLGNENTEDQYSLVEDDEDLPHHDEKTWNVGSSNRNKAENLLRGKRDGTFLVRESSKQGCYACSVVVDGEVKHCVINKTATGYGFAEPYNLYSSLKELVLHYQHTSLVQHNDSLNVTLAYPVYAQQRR
Field format: number, assumed nM, no unit text.

Quick one: IC50 of `CCn1ccc2c(N3CCOCC3)nc(-c3ccc(NC(=O)Nc4ccc(C(=O)N5CCN(C)CC5)cc4)cc3)nc21` ? 1.4

Quick one: IC50 of `CCn1ccc2c(N3CCOCC3)nc(-c3ccc(NC(=O)Nc4ccc(C(=O)N5CCN(c6ccccn6)CC5)cc4)cc3)nc21` ? 8

Quick one: IC50 of `CCOC(=O)Nc1nc2cc(-c3nc(N4CCOCC4)c4ccn(CC(F)(F)F)c4n3)ccc2[nH]1` ? 1840

Quick one: IC50 of `CCN1CCN(C(=O)c2ccc(NC(=O)Nc3ccc(-c4nc(N5CCOCC5)c5ccn(C(C)C)c5n4)cc3)cc2)CC1` ? 8.5

Quick one: IC50 of `CCn1ccc2c(N3CCOCC3)nc(-c3ccc(NC(=O)Nc4ccc(C(=O)N5CCC(N6CCCCC6)CC5)cc4)cc3)nc21` ? 3.5

Quick one: IC50 of `CC(C)NCCn1ccc2c(N3CCOCC3)nc(-c3ccc(NC(=O)Nc4ccncc4)cc3)nc21` ? 37

Quick one: IC50 of `CCn1ccc2c(N3CCOCC3)nc(-c3ccc(NC(=O)Nc4ccc(C(=O)NCCN5CCCC5)cc4)cc3)nc21` ? 2

Quick one: IC50 of `CCN1CCN(C(=O)c2ccc(NC(=O)Nc3ccc(-c4nc(N5CCOCC5)c5ccn(CC)c5n4)cc3)cc2)CC1` ? 2.5

Quick one: IC50 of `CC(C)N1CCN(C(=O)c2ccc(NC(=O)Nc3ccc(-c4nc(N5CCOCC5)c5ccn(C(C)C)c5n4)cc3)cc2)CC1` ? 12

Quick one: IC50 of `CCn1ccc2c(N3CCOCC3)nc(-c3ccc(NC(=O)NC)cc3)nc21` ? 140

Quick one: IC50 of `CCn1ccc2c(N3CCOCC3)nc(-c3ccc(NC(=O)Nc4ccc(C(=O)NCCN5CCCCC5)cc4)cc3)nc21` ? 4

Quick one: IC50 of `O=C(Nc1ccncc1)Nc1ccc(-c2nc(N3CCOCC3)c3ccn(CCNc4ccc(F)cc4)c3n2)cc1` ? 41

Quick one: IC50 of `CN(C)CCn1ccc2c(N3CCOCC3)nc(-c3ccc(N)cc3)nc21` ? 2980

Quick one: IC50 of `CCn1ccc2c(N3CCOCC3)nc(-c3ccc(NC(=O)Nc4ccc(C(=O)NCCCN(C)C)cc4)cc3)nc21` ? 1.9

Quick one: IC50 of `CN(C)CCOc1ccc(NC(=O)Nc2ccc(-c3nc(N4CCOCC4)c4ccn(CC(F)(F)F)c4n3)cc2)cc1` ? 2

Quick one: IC50 of `Cn1ccc2c(N3CCOCC3)nc(-c3ccc(NC(=O)Nc4cccnc4)cc3)nc21` ? 26

Quick one: IC50 of `CCn1ccc2c(N3CCOCC3)nc(-c3ccc(NC(=O)Nc4ccc(C(=O)N5CCOCC5)cc4)cc3)nc21` ? 3.5

Quick one: IC50 of `O=C(Nc1ccc(F)cc1)Nc1ccc(-c2nc(N3CCOCC3)c3ccn(CC(F)(F)F)c3n2)cc1` ? 82

Quick one: IC50 of `CC(C)n1ccc2c(N3CCOCC3)nc(-c3ccc(NC(=O)Nc4ccc(C(=O)N5CCC(N6CCCC6)CC5)cc4)cc3)nc21` ? 4.3

Quick one: IC50 of `NC(=O)Nc1cccc(Cn2ccc3c(N4CCOCC4)nc(-c4cccc(CO)c4)nc32)c1` ? 99

Quick one: IC50 of `COC(=O)c1ccc(NC(=O)Nc2ccc(-c3nc(N4CCOCC4)c4ccn(C(C)C)c4n3)cc2)cc1` ? 116

Quick one: IC50 of `CN(C)CCNC(=O)c1ccc(NC(=O)Nc2ccc(-c3nc(N4CCOCC4)c4ccn(CC(F)(F)F)c4n3)cc2)cc1` ? 1.1

Quick one: IC50 of `CC(C)n1ccc2c(N3CCOCC3)nc(-c3ccc(NC(=O)Nc4ccc(C(=O)NCCN5CCCC5)cc4)cc3)nc21` ? 5

Quick one: IC50 of `O=C(Nc1ccc(C(=O)NCCN2CCCCC2)cc1)Nc1ccc(-c2nc(N3CCOCC3)c3ccn(CC(F)(F)F)c3n2)cc1` ? 2.6

Quick one: IC50 of `CC(C)n1ccc2c(N3CCOCC3)nc(-c3ccc(NC(=O)Nc4ccc(C(=O)N5CCC(N(C)C)CC5)cc4)cc3)nc21` ? 4

Quick one: IC50 of `CCn1ccc2c(N3CCOCC3)nc(-c3ccc(NC(=O)Nc4ccc(C(=O)O)cc4)cc3)nc21` ? 14.5

Quick one: IC50 of `O=C(Nc1ccc(-c2nc(N3CCOCC3)c3ccn(CC(F)(F)F)c3n2)cc1)OCCO` ? 570
